Let's look at some compounds and their measured IC50.
Target: Recombinant Human ENPP-1 Protein (Homo sapiens (Human))
Assay: ENPP1 Inhibition Assay
Details: substrate Thymidine 5′-monophosphate p-nitrophenol ester; pH 9.0; 37° C. for 45 minutes; absorbance at 405 nm

# count of solved cases: 4
> print(dat)
                         compound.structure                              assay.target        result
1  COc1ccc(Br)cc1NC(=O)CSc1nc(C(=O)O)c[nH]1  Recombinant Human ENPP-1 Protein (Homo sapiens (Human))  0.2 to 10 µM
2  COc1ccc(NC(=O)CSc2nc(C(=O)O)c[nH]2)cc1Br  Recombinant Human ENPP-1 Protein (Homo sapiens (Human))      < 0.2 µM
3    O=C(CSc1nc(C(=O)O)c[nH]1)Nc1c(F)cccc1F  Recombinant Human ENPP-1 Protein (Homo sapiens (Human))       > 10 µM
4  COc1ccc(CNC(=O)CSc2nc(C(=O)O)c[nH]2)c(OC)c1  Recombinant Human ENPP-1 Protein (Homo sapiens (Human))       > 10 µM

Ask | Tell me its IC50 on Recombinant Human ENPP-1 Protein (Homo sapiens (Human)): COc1ccc(NC(=O)CSc2nc(C(=O)O)c[nH]2)c(OC)c1OC
Reply | > 10 µM

Ask | Tell me its IC50 on Recombinant Human ENPP-1 Protein (Homo sapiens (Human)): COc1ccc(NC(=O)CSc2nc(-c3nnn[nH]3)c[nH]2)cc1OC
Reply | < 0.2 µM

Ask | Tell me its IC50 on Recombinant Human ENPP-1 Protein (Homo sapiens (Human)): O=C(CSc1nc(C(=O)O)c[nH]1)NCc1ccc(Cl)cc1
Reply | > 10 µM

Ask | Tell me its IC50 on Recombinant Human ENPP-1 Protein (Homo sapiens (Human)): COc1ccc(NC(=O)CSc2nc(C(=O)OCCN(C)C)c[nH]2)cc1OC
Reply | 0.2 to 10 µM

Ask | Tell me its IC50 on Recombinant Human ENPP-1 Protein (Homo sapiens (Human)): O=C(CSc1nc(C(=O)O)c[nH]1)NCc1cccc(Br)c1
Reply | > 10 µM

====

Target: Recombinant Human ENPP-1 Protein (Homo sapiens (Human), UniProt P22413)
Sequence (P22413 whole entry): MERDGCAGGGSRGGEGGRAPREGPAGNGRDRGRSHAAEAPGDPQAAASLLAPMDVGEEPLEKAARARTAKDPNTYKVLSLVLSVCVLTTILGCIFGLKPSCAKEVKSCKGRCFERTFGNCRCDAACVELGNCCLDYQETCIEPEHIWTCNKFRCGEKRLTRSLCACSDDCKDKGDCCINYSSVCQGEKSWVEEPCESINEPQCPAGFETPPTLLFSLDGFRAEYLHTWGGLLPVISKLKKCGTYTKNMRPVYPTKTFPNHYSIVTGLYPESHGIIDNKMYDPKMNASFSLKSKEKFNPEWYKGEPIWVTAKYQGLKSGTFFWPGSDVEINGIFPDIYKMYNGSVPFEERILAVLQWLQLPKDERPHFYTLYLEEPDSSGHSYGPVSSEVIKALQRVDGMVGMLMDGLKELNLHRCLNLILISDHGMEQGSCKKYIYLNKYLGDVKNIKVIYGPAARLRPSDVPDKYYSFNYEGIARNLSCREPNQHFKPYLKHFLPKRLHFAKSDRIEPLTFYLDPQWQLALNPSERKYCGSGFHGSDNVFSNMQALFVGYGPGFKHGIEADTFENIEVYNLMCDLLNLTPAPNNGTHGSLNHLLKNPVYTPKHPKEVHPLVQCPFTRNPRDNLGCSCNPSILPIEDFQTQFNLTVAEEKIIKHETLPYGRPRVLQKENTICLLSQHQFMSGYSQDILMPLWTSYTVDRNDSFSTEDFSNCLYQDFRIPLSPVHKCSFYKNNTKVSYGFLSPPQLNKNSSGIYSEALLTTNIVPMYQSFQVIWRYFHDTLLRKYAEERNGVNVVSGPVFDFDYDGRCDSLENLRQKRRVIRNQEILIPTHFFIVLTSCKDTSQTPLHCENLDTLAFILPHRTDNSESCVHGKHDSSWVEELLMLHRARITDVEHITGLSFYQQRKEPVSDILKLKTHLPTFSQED
Test: ENPP1 Inhibition Assay
Details: substrate Thymidine 5′-monophosphate p-nitrophenol ester; pH 9.0; 37° C. for 45 minutes; absorbance at 405 nm
READOUT_NAME: IC50

> print(dat)
                                  molecule                              assay.target           result
1  COc1ccc(CNC(=O)CSc2nc(C(=O)O)c[nH]2)cc1  Recombinant Human ENPP-1 Protein (Homo sapiens (Human), UniProt P22413)  200 to 10000 nM

Ask | Tell me its IC50 on Recombinant Human ENPP-1 Protein (Homo sapiens (Human), UniProt P22413): COc1ccc(NC(=O)CSc2nc(/C(N)=N/O)c[nH]2)cc1OC
Reply | < 200 nM

Ask | Tell me its IC50 on Recombinant Human ENPP-1 Protein (Homo sapiens (Human), UniProt P22413): CCOC(=O)c1c[nH]c(SCC(=O)Nc2ccc(OC)c(OC)c2)n1
Reply | < 200 nM

Ask | Tell me its IC50 on Recombinant Human ENPP-1 Protein (Homo sapiens (Human), UniProt P22413): COc1ccc(NC(=O)CSc2nc(C(N)=O)c[nH]2)cc1OC
Reply | < 200 nM

Ask | Tell me its IC50 on Recombinant Human ENPP-1 Protein (Homo sapiens (Human), UniProt P22413): COc1cc(NC(=O)CSc2nc(C(=O)O)c[nH]2)cc(OC)c1
Reply | 200 to 10000 nM

Ask | Tell me its IC50 on Recombinant Human ENPP-1 Protein (Homo sapiens (Human), UniProt P22413): COc1ccc(CNC(=O)CSc2nc(C(=O)O)c[nH]2)cc1OC
Reply | 200 to 10000 nM

Ask | Tell me its IC50 on Recombinant Human ENPP-1 Protein (Homo sapiens (Human), UniProt P22413): COc1ccc(NC(=O)CSc2nc(C#N)c[nH]2)cc1OC
Reply | < 200 nM

Ask | Tell me its IC50 on Recombinant Human ENPP-1 Protein (Homo sapiens (Human), UniProt P22413): COc1ccc(NC(=O)CSc2nc(C(=O)O)c[nH]2)cc1C#N
Reply | < 200 nM

Ask | Tell me its IC50 on Recombinant Human ENPP-1 Protein (Homo sapiens (Human), UniProt P22413): COc1ccc(NC(=O)CSc2nc(C(=O)O)c[nH]2)cc1F
Reply | < 200 nM

Ask | Tell me its IC50 on Recombinant Human ENPP-1 Protein (Homo sapiens (Human), UniProt P22413): COc1cc(NC(=O)CSc2nc(C(=O)O)c[nH]2)ccc1Cl
Reply | < 200 nM

Ask | Tell me its IC50 on Recombinant Human ENPP-1 Protein (Homo sapiens (Human), UniProt P22413): O=C(CSc1nc(C(=O)O)c[nH]1)Nc1ccc(N2CCOCC2)cc1
Reply | > 10000 nM

Ask | Tell me its IC50 on Recombinant Human ENPP-1 Protein (Homo sapiens (Human), UniProt P22413): COc1ccc(NC(=O)CSc2nc(C(=O)OCC(O)CO)c[nH]2)cc1OC (stereo not drawn)
Reply | < 200 nM

====

Let's look at some molecules and their measured IC50.
Molecular target: Recombinant Human ENPP-1 Protein (Homo sapiens (Human), UniProt P22413)
Test: ENPP1 Inhibition Assay
Conditions: substrate Thymidine 5′-monophosphate p-nitrophenol ester; pH 9.0; 37° C. for 45 minutes; absorbance at 405 nm

# count of solved cases: 5
> print(dat)
                         compound.structure  readout.name        result
1  O=C(CSc1nc(C(=O)O)c[nH]1)Nc1c(Cl)cccc1Cl          IC50       > 10 µM
2  COc1ccc(NC(=O)CSc2nc(C(=O)O)c[nH]2)c(OC)c1F          IC50       > 10 µM
3    Cc1ccc(NC(=O)CSc2nc(C(=O)O)c[nH]2)cc1C          IC50       > 10 µM
4    O=C(CSc1nc(C(=O)O)c[nH]1)Nc1ccc(Cl)cc1          IC50  0.2 to 10 µM
5  COc1ccc(NC(=O)CSc2nc(C(=O)O)c[nH]2)cc1OC          IC50      < 0.2 µM

Ask | Please report the measured IC50 for O=C(CSc1nc(C(=O)O)c[nH]1)Nc1ccc(Cl)cc1F
Reply | 0.2 to 10 µM

Ask | Please report the measured IC50 for COc1cc(NC(=O)CSc2nc(C(=O)O)c[nH]2)c(OC)cc1Cl
Reply | 0.2 to 10 µM

Ask | Please report the measured IC50 for Cc1ccc(F)c(NC(=O)CSc2nc(C(=O)O)c[nH]2)c1
Reply | > 10 µM

Ask | Please report the measured IC50 for COc1ccc(Oc2ccc(NC(=O)CSc3nc(C(=O)O)c[nH]3)cc2)cc1
Reply | 0.2 to 10 µM

====

Let's look at some compounds and their measured pIC50.
Target: Recombinant Human ENPP-1 Protein (Homo sapiens (Human), UniProt P22413)
Assay: ENPP1 Inhibition Assay
Settings: substrate Thymidine 5′-monophosphate p-nitrophenol ester; pH 9.0; 37° C. for 45 minutes; absorbance at 405 nm
pIC50: −log10 of the molar value.

# count of solved cases: 2
> print(dat)
                                   compound  readout.name        result
1  Cc1cccc(NC(=O)CSc2nc(C(=O)O)c[nH]2)c1C [Compound I-19]         pIC50        < 5.00
2  O=C(CSc1nc(C(=O)O)c[nH]1)Nc1ccc(Br)cc1 [Compound I-23]         pIC50  5.00 to 6.70

Ask | Please report the measured pIC50 for CNC(=O)c1c[nH]c(SCC(=O)Nc2ccc(OC)c(OC)c2)n1 [Compound I-2]
Reply | 5.00 to 6.70
